molecular target: PI3Kβ (Homo sapiens); construct: purchased DiscoveRx Corporation, San Diego (contract service, KINOMEscan); assay: Enzyme binding assay (KINOMEscan, DiscoveRx); conditions: PIK3Cβ_h, read-out: Kd PIK3Cβ_h
Sequence (P42338 whole entry): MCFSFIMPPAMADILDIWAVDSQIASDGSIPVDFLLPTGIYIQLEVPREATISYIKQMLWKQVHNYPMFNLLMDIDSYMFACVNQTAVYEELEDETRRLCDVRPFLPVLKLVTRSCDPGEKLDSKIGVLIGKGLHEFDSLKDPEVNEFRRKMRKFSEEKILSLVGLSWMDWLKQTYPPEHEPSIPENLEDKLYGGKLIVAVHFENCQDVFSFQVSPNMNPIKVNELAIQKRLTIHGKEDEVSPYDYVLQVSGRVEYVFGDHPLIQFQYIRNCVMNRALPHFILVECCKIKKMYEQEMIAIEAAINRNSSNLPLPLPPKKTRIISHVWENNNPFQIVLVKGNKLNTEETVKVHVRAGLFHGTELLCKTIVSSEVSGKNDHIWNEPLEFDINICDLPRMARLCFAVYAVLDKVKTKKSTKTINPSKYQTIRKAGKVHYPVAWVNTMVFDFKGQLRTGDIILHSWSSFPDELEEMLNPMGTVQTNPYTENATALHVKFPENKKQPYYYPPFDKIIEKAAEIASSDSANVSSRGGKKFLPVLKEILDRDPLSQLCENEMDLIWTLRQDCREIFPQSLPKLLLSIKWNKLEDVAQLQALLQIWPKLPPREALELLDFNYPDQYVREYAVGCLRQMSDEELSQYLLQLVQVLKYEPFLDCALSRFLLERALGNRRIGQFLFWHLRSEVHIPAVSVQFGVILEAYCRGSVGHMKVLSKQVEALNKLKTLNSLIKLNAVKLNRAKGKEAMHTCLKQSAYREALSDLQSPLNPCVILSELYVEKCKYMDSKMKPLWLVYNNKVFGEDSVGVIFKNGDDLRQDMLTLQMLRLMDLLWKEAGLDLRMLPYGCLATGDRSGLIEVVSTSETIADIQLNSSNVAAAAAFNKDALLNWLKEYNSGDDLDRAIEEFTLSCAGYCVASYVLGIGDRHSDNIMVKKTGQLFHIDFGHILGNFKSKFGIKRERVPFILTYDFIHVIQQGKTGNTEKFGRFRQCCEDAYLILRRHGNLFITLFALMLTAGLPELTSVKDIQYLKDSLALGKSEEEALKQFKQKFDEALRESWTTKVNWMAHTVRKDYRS
pKd: −log10 of the molar value.
Value Kind: pKd

Molecule	Tested System	Measurement Qualifier	Value Reported
CNCCNC(=O)c1cc(C(C)N(C)c2cccc(F)c2)c2nc(N3CCOCC3)cnc2c1 (stereo not shown) [Compound 130]	PI3Kβ (Homo sapiens)	=	9.30
CN(C)C(=O)c1cc(C2CCCN2c2ccc(C#N)c(F)c2)c2nc(N3CCOCC3)cnc2c1 (stereo not shown) [Compound 54]	PI3Kβ (Homo sapiens)	=	6.94
O=Cc1cc(C2CCCN2c2cc(F)cc(F)c2)c2nc(N3CCOCC3)cnc2c1 (stereo not shown) [Compound 250]	PI3Kβ (Homo sapiens)	=	9.00
CNCCOCCN(C)C(=O)c1cc(C(C)Nc2cc(F)c(F)c(F)c2)c2nc(N3CCOCC3)cnc2c1 (single isomer, unassigned) [Compound 315b]	PI3Kβ (Homo sapiens)	=	9.00
Cc1c(CNc2cc(C(=O)NCCO)cc3ncc(N4CCOCC4)nc23)cccc1C(F)(F)F [Compound 231]	PI3Kβ (Homo sapiens)	=	7.28
CC(Nc1cc(F)cc(F)c1)c1cc(-c2cc[nH]n2)cc2ncc(N3CCOCC3)nc12 (stereo not shown) [Compound 304]	PI3Kβ (Homo sapiens)	=	7.21
CN(C(=O)c1cc(NCc2cc(F)cc(F)c2)c2nc(N3CCOCC3)cnc2c1)[C@@H]1CCNC1 [Compound 355]	PI3Kβ (Homo sapiens)	=	7.89
CCN1CCN(C(=O)c2cc(C(C)Oc3cccc(F)c3)c3nc(N4CCOCC4)cnc3c2)CC1 (single isomer, unassigned) [Compound 91]	PI3Kβ (Homo sapiens)	=	8.00
CC(Nc1ccc(F)c(F)c1)c1cc(C(=O)N[C@H]2CCNC2)cc2ncc(N3CCOCC3)nc12 (single isomer, unassigned) [Compound 374b]	PI3Kβ (Homo sapiens)	=	7.01
CN(C)C(=O)c1cc(C(CO)N(C)c2cccc(F)c2)c2nc(N3CCOCC3)cnc2c1 (stereo not shown) [Compound 301]	PI3Kβ (Homo sapiens)	=	7.37
O=C(c1cc(C2CCCN2c2cc(F)cc(F)c2)c2nc(N3CCOCC3)cnc2c1)N1CCC1 (single isomer, unassigned) [Compound 37]	PI3Kβ (Homo sapiens)	=	7.70
CC(Nc1cc(F)cc(F)c1)c1cc(C(=O)N(C)CCO)cc2ncc(N3CCOCC3)nc12 (stereo not shown) [Compound 145]	PI3Kβ (Homo sapiens)	=	9.00
CC(Oc1ccc(F)c(F)c1)c1cc(C(=O)N2CCN3CCC[C@@H]3C2)cc2ncc(N3CCOCC3)nc12 (mixture of isomers) [Compound 375]	PI3Kβ (Homo sapiens)	=	6.93
Cc1c(F)cccc1CN(C)c1cc(C(=O)N(C)C)cc2ncc(N3CCOCC3)nc12 [Compound 354]	PI3Kβ (Homo sapiens)	=	7.20
CC(Nc1ccc(F)c(F)c1)c1cc(C(=O)NCCO)cc2ncc(N3CCOCC3)nc12 (single isomer, unassigned) [Compound 279b]	PI3Kβ (Homo sapiens)	=	5.72
CC(Nc1cc(F)cc(F)c1)c1cc(C(=O)N2CCNC(C(F)(F)F)C2)cc2ncc(N3CCOCC3)nc12 (single isomer, unassigned) [Compound 237a]	PI3Kβ (Homo sapiens)	=	9.00
CC(Nc1cc(F)cc(F)c1)c1cc(Br)cc2ncc(N3CCOCC3)nc12 (stereo not shown) [Compound 167]	PI3Kβ (Homo sapiens)	=	7.59
CC(Nc1cc(F)cc(F)c1)c1cc(C(=O)N2CCNC(C(F)(F)F)C2)cc2ncc(N3CCOCC3)nc12 (stereo not shown) [Compound 237]	PI3Kβ (Homo sapiens)	=	9.00
CC(Nc1cc(F)cc(F)c1)c1cc(CN2CCS(=O)(=O)CC2)cc2ncc(N3CCOCC3)nc12 (single isomer, unassigned) [Compound 157]	PI3Kβ (Homo sapiens)	=	6.99
CC(Nc1cc(F)cc(Cl)c1)c1cc(C(=O)N2CCOCC2)cc2ncc(N3CCOCC3)nc12 (stereo not shown) [Compound 146]	PI3Kβ (Homo sapiens)	=	8.70
OC(CN1CCC1)c1cc(C2CCCN2c2cc(F)cc(F)c2)c2nc(N3CCOCC3)cnc2c1 (single isomer, unassigned) [Compound 95]	PI3Kβ (Homo sapiens)	=	9.30
COCCN(C)Cc1cc(C2CCCN2c2cc(F)cc(F)c2)c2nc(N3CCOCC3)cnc2c1 (stereo not shown) [Compound 112]	PI3Kβ (Homo sapiens)	=	9.00
CC(Oc1cccc(F)c1)c1cc(C(=O)NCCO)cc2ncc(N3CCOCC3)nc12 (single isomer, unassigned) [Compound 334a]	PI3Kβ (Homo sapiens)	=	7.72
O=C(NCCO)c1cc(NCc2cccc(F)c2C2CCNCC2)c2nc(N3CCOCC3)cnc2c1 [Compound 317]	PI3Kβ (Homo sapiens)	=	7.89
CN(C)C(=O)c1cc(C2CCCN2c2cc(F)cc(C=O)c2)c2nc(N3CCOCC3)cnc2c1 (stereo not shown) [Compound 44]	PI3Kβ (Homo sapiens)	=	9.00
CC(Nc1cc(C(=O)N(C)C)cc2ncc(N3CCOCC3)nc12)c1cc(F)cc(F)c1 (stereo not shown) [Compound 402]	PI3Kβ (Homo sapiens)	=	7.36
COC(=O)c1cc(C2CCCN2c2cc(F)cc(F)c2)c2nc(N3CCOCC3)cnc2c1 (single isomer, unassigned) [Compound 31]	PI3Kβ (Homo sapiens)	<	4.49
CC(Nc1cc(F)cc(F)c1)c1cc(C(=O)NS(N)(=O)=O)cc2ncc(N3CCOCC3)nc12 (single isomer, unassigned) [Compound 243a]	PI3Kβ (Homo sapiens)	=	9.30

Source of measurements: patent US10526316B2
